Target or test system: Dual specificity tyrosine-phosphorylation-regulated kinase 2 (Homo sapiens);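 further: reported values are means of DYRK2 inhibition from screening the GSK PKIS collection at 1 µM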
Protocol conditions: at 1 µM

Query smiles	inhibition
c1cnn2ncc(-c3ccnc(Nc4ccc5c(c4)OCCO5)n3)c2c1	50.8%
COc1cc(C)c(NC(=O)CN(C)C)cc1Nc1nc(Nc2cccc(F)c2C(N)=O)c2cc[nH]c2n1	5.3%
COc1ccc(-c2ccncc2)cc1C(N)=O	9.87%
CCN1CCC(CC(=O)Nc2n[nH]c3nc(-c4cccs4)c(Br)cc23)CC1	14%
N#Cc1c(NC(=O)c2cccc3ccccc23)sc2c1CCCC2	2.69%
CCn1c(-c2nonc2N)nc2c(C#CC(C)(C)O)nc(CN3CCCC3)cc21	0.64%
CCn1c(-c2nonc2N)nc2ccncc21	2.17%
CCCN1CCC(Oc2cc(Nc3nc(Nc4cccc(F)c4C(N)=O)c4cc[nH]c4n3)c(OC)cc2Cl)CC1	0.67%
Cc1ccc(NC(=O)c2ccnc(N3CCCC3)c2)cc1-c1ccc(C(=O)NCC2CC2)cc1	3.11%
COC(=O)Nc1nc2cc(Oc3cccc(NC(=O)Nc4cc(C(F)(F)F)ccc4F)c3)ccc2[nH]1	-0.02%
O=C1NC(=O)C(c2ccccc2Cl)=C1Nc1cccc(O)c1	2.96%
CCn1c(-c2nonc2N)nc2cncc(C(=O)N3CC[C@H](N)C3)c21	59.5%
NCc1ccc(-c2nc(-c3ccc(Cl)c(O)c3)c(-c3ccncc3)[nH]2)cc1	0.81%
NS(=O)(=O)c1ccc(N/N=C2\C(=O)Nc3ccc(C(=O)NCCc4c[nH]cn4)cc32)cc1	33.4%
Cc1ccc(C(=O)NC2CCCCC2)cc1-c1ccc(C(=O)NCC2CC2)cc1	1.81%
O=C1Nc2ccc(C(=O)c3ccco3)cc2C1=Cc1cc(Cl)c(O)c(Cl)c1	13.4%
CNC(=O)c1cncc(/C=C/c2c(Cl)cccc2Cl)c1	6.98%
[O-][S+]1CCN(Cc2ccc(-c3ccc4ncnc(Nc5ccc(OCc6ccccc6)c(F)c5)c4c3)o2)CC1	3.4%
Cc1nn(C)c2cc(N(C)c3ccnc(Nc4cccc(S(N)(=O)=O)c4)n3)ccc12	2.82%
COc1ccc(-c2coc3ncnc(N)c23)cc1	4.61%
Cc1cc(O)cc(C)c1/C=C/c1cncc(-c2nn[nH]n2)c1	3.95%
CC(=O)Nc1cccc(C#Cc2cncnc2Nc2ccc(OCc3cccc(F)c3)c(Cl)c2)n1	-0.95%
O=C1NC(=O)C(N2CCc3ccccc32)=C1c1ccc(Cl)cc1	3.36%
COc1cc2c(cc1Nc1nc(N3CCc4ccccc43)c3cc[nH]c3n1)N(C(=O)CN(C)C)CC2	2.02%
Fc1cccc(COc2ccc(Nc3ncnc4cc(-c5ccc[nH]5)sc34)cc2Cl)c1	1.07%

FYI, the data here is from ChEMBL document CHEMBL1961873.
